# assayTarget: Induced myeloid leukemia cell differentiation protein Mcl-1/Bcl-2-like protein 11 (Homo sapiens, UniProt Q07820)
# Sequence (Q07820 whole entry): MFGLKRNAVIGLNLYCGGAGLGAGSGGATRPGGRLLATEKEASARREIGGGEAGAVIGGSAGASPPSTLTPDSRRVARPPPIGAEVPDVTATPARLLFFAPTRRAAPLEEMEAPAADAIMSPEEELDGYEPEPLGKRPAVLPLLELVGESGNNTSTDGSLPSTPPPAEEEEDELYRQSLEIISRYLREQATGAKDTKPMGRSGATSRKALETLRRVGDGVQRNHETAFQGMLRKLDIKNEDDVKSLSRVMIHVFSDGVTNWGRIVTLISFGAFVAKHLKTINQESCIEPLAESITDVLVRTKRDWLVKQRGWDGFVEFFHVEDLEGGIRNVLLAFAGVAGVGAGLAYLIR
# Sequence (O43521 whole entry, further chain): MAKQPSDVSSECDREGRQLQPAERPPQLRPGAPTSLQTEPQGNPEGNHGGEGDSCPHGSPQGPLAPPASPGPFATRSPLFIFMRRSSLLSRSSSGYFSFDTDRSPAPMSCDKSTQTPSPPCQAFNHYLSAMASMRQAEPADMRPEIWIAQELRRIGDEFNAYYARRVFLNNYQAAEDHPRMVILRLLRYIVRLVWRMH
# assayComment: Inhibition of Mcl1/Bim (unknown origin) by ELISA
measuredMetric: IC50

CC(C)(C)OC(=O)Cn1cc(-c2ccc(C(=O)c3[nH]c(Cl)c(Cl)c3-n3c(C(=O)c4ccc(-c5cn(CC(=O)OC(C)(C)C)nn5)cc4O)cc(Cl)c3Cl)c(O)c2)nn1    5.1 µM
O=C(c1ccccc1O)c1[nH]c(Cl)c(Cl)c1-n1c(C(=O)c2cccc(Cl)c2O)cc(Cl)c1Cl    4.1 µM

Record request: IC50 value, item O=C(c1ccc(OS(=O)(=O)C(F)(F)F)cc1O)c1[nH]c(Cl)c(Cl)c1-n1c(C(=O)c2ccccc2O)cc(Cl)c1Cl 1 µM

Proceed to C=Cc1ccc(C(=O)c2[nH]c(Cl)c(Cl)c2-n2c(C(=O)c3ccc(C=C)cc3O)cc(Cl)c2Cl)c(O)c1 3.7 µM

Proceed to O=C(c1ccccc1O)c1[nH]c(Cl)c(Cl)c1-n1c(C(=O)c2ccc(F)cc2O)cc(Cl)c1Cl 9.6 µM

Proceed to O=C(c1ccc(O)cc1O)c1[nH]c(Cl)c(Cl)c1-n1c(C(=O)c2ccc(O)cc2O)cc(Cl)c1Cl 39.5 µM

Proceed to O=C(c1ccccc1O)c1[nH]c(Cl)c(Cl)c1-n1c(C(=O)c2ccc(Cl)cc2O)cc(Cl)c1Cl 6.5 µM

Proceed to Cn1c(Cl)c(Cl)c(-n2c(C(=O)c3ccccc3O)cc(Cl)c2Cl)c1C(=O)c1ccccc1O > 100 µM

Proceed to O=C(c1ccc(C(F)(F)F)cc1O)c1[nH]c(Cl)c(Cl)c1-n1c(C(=O)c2ccc(C(F)(F)F)cc2O)cc(Cl)c1Cl 8.1 µM

Proceed to CC(C)(C)OC(=O)Cn1cc(-c2cc(O)c(C(=O)c3[nH]c(Cl)c(Cl)c3-n3c(C(=O)c4cc(Cl)c(-c5cn(CC(=O)OC(C)(C)C)nn5)cc4O)cc(Cl)c3Cl)cc2Cl)nn1 1.6 µM

Proceed to O=C(c1cc(Cl)c(O)cc1O)c1[nH]c(Cl)c(Cl)c1-n1c(C(=O)c2cc(Cl)c(O)cc2O)cc(Cl)c1Cl 10.7 µM

Proceed to O=C(c1ccccc1O)c1[nH]c(Cl)c(Cl)c1-n1c(C(=O)c2cc(F)ccc2O)cc(Cl)c1Cl 8.9 µM

---

# assayTarget: Bcl-xL/Bcl-2-like protein 11 (Homo sapiens, UniProt Q07817)
# Sequence (Q07817 whole entry, one chain of several): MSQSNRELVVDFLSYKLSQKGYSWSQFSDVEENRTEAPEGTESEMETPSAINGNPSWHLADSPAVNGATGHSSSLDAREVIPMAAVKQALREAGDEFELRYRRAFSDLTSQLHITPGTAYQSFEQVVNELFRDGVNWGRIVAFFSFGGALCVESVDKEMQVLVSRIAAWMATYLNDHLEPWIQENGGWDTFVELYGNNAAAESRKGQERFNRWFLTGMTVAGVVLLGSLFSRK
pIC50: −log10 of the molar value.
Rule: pIC50 of 5 or more gives yes; anything lower gives no.

O=C(c1ccc(O)cc1O)c1[nH]c(Cl)c(Cl)c1-n1c(C(=O)c2ccc(O)cc2O)cc(Cl)c1Cl    no

Can O=C(c1ccccc1O)c1[nH]c(Cl)c(Cl)c1-n1c(C(=O)c2ccc(F)cc2O)cc(Cl)c1Cl be said to have pIC50 at or above 5? no

Proceed to O=C(c1ccc(-c2cn(-c3ccccc3)nn2)cc1O)c1[nH]c(Cl)c(Cl)c1-n1c(C(=O)c2ccc(-c3cn(-c4ccccc4)nn3)cc2O)cc(Cl)c1Cl yes

Proceed to O=C(O)Cn1cc(-c2cc(O)c(C(=O)c3[nH]c(Cl)c(Cl)c3-n3c(C(=O)c4cc(Cl)c(-c5cn(CC(=O)O)nn5)cc4O)cc(Cl)c3Cl)cc2Cl)nn1 no

Value source: ChEMBL document CHEMBL3393015
